Biological target: T1, HCV Core1-169 recombinant antigen (hepatitis C virus (HCV-1), UniProt P26664 1-169)
T1 sequence: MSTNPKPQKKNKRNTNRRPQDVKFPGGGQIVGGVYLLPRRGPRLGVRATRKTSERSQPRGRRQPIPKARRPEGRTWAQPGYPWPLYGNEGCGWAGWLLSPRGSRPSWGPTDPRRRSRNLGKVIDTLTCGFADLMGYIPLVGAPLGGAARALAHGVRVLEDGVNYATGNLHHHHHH
Experiment: sandwich EIA, 25 ng/ml core1-169; capture mAb 208B-612-226
OBSERVATION TYPE: OD492 nm (OD492)
Number in OD492, nothing else.

BINDER | DISPLAY UNIT | OD492 nm
HCV 208A-557 monoclonal antibody (antibody, V domains shown) VH: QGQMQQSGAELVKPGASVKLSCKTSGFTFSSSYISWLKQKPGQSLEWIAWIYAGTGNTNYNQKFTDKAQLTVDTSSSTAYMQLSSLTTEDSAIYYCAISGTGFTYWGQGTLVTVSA VL: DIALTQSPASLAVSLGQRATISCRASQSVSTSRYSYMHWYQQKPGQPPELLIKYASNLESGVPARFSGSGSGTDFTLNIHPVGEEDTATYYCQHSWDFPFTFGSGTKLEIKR | OD492 | 0.25
208B-612-226 monoclonal antibody (antibody, V domains shown) VH: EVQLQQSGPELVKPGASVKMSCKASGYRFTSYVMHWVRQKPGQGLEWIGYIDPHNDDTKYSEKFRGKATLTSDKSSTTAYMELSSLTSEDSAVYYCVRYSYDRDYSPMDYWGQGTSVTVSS VL: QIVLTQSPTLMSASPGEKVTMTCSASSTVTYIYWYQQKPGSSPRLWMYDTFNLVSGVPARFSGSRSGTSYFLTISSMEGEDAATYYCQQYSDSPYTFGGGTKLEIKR | OD492 | 0.23

Alright, here's another binder for you.
Which OD492 nm reading was recorded for the binder 208B-395-334 monoclonal antibody (antibody, V domains shown) VH: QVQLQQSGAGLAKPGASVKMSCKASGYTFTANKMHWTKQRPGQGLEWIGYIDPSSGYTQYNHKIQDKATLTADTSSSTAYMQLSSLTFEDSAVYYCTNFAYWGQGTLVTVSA VL: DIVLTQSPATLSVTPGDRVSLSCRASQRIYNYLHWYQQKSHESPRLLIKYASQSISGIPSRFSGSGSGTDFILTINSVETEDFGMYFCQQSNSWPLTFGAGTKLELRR ?
0.26
